Here the recorded polymerase ribozyme fitness (log ratio) is given for each entry.
B1: TPR 5TU (parent)
chain: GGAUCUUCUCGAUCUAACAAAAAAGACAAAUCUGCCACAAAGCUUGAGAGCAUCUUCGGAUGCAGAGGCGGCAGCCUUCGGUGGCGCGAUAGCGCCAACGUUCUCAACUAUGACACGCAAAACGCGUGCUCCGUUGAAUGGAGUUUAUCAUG

Variants of: B1
assayText: polymerase ribozyme fitness, log enrichment relative to wild type (log ratio); higher = more active; in vitro selection for triplet polymerase activity
Fewer inactive variants are shown than the library holds.
Answer field: number only, no words.

Sample records with polymerase ribozyme fitness (log ratio):
C32U U55A
-1.62
C96G C116A A138C A147C
-3.36

Q: Reported polymerase ribozyme fitness (log ratio), variant C38U A52G G70U C85U G117U : ____
Ans: -3.27

Q: Reported polymerase ribozyme fitness (log ratio), variant A60U C87U U135C : ____
Ans: -3.65

Q: Reported polymerase ribozyme fitness (log ratio), variant G70C G80A : ____
Ans: -3.94

Q: Reported polymerase ribozyme fitness (log ratio), variant U15G C38U U55A U56A C57G C85U A147C : ____
Ans: -2.05

Q: Reported polymerase ribozyme fitness (log ratio), variant C54A C95U A106C : ____
Ans: -2.19

Q: Reported polymerase ribozyme fitness (log ratio), variant A16U C85U U144C : ____
Ans: -2.3

Q: Reported polymerase ribozyme fitness (log ratio), variant G86U C123G : ____
Ans: -1.55

Q: Reported polymerase ribozyme fitness (log ratio), variant A21C C85G C103U G136A : ____
Ans: -1.18
